Recorded values, source patent US10870889B2.

Tested on: Line A (high Ig) hybridoma cells
Test: Hybridoma sensitivity to carfilzomib, CellTiter-Glo Luminescent Cell Viability Assay, Line A
Assay type: cell-based
Details: 72h treatment, viability vs no treatment control, read-out: inhibitory concentration (IC50) on the cells of Line A
Measured Quantity: IC50 (nM)

- CC(C)C[C@H](NC(=O)[C@H](CCc1ccccc1)NC(=O)CN1CCOCC1)C(=O)N[C@@H](Cc1ccccc1)C(=O)N[C@@H](CC(C)C)C(=O)[C@@]1(C)CO1: 10.4
